System: TYRO3 (Homo sapiens, UniProt Q06418) | Read-out: pIC50 | Origin: multiple publications
pIC50: −log10 of the molar value.

Compound	Target entity	pIC50
COc1cc2nccc(Oc3ccc(NC(=O)c4cn(C(C)C)nc(-c5ccc(F)cc5)c4=O)nc3)c2cc1OC	TYRO3 (Homo sapiens, UniProt Q06418)	7.19

# pIC50 (compound: CCC[C@H](C)Nc1ncc2c(OC3CCNCC3)ncc([C@H]3CC[C@H](O)CC3)c2n1 ) is ≥ 7.00

# pIC50 (compound: CCN(C)C(=O)N1CCC(c2cc(-c3ccc(NC(=O)c4cn(C(C)C)c(=O)n(-c5ccccc5F)c4=O)cc3)c3c(N)ncnn23)CC1 ) is < 7.00

# pIC50 (compound: Cc1cc(-c2cc([C@H]3CC[C@H](O)CC3)n3nc(N[C@@H](C)CC(F)(F)F)ncc23)cnn1 ) is ≥ 7.00

# pIC50 (compound: CNC(=O)c1ncc(-c2cc([C@H]3CC[C@H](O)CC3)n3nc(N[C@@H](C)CC(F)(F)F)ncc23)cn1 ) is ≥ 7.00
